meta.source: the supplement of paper PMC11281043

Tested on: Danio rerio embryo/larva
Assay: max % larvae with any abnormality across tested concentrations; max tested concentration (log10 uM): 2; higher = more toxic; extreme values may be limits of the assay
Conditions: exposure: 6-8 hpf to 5 dpf, scored at 6 dpf
Measured Metric: max % larvae (%)

>>> measured_result("O=C(O)C=C(C(F)(F)F)C(F)(F)F [3,3-Bis(trifluoromethyl)-2-propenoic acid]")
2.08
>>> measured_result("OCCCCC(F)(F)C(F)(F)C(F)(F)C(F)(F)F [4:4 Fluorotelomer alcohol]")
97.9
>>> measured_result("NC(=O)C(F)(F)C(F)(F)C(F)(F)C(F)(F)F [Nonafluoropentanamide]")
0
>>> measured_result("O=C(O)CCC(F)(C(F)(F)F)C(F)(F)F [4,4-bis(Trifluoromethyl)-4-fluoropropanoic acid]")
16.7
>>> measured_result("O=C(O)C(F)(F)C(F)(F)C(F)(F)C(F)(F)C(F)(F)C(F)(F)C(F)F [8H-Perfluorooctanoic acid]")
16.7
>>> measured_result("CCN(CCO)S(=O)(=O)C(F)(F)C(F)(F)C(F)(F)C(F)(F)C(F)(F)C(F)(F)C(F)(F)C(F)(F)F [N-Ethyl-N-(2-hydroxyethyl)perfluorooctane sulfonamide]")
12.5
>>> measured_result("O=C(CC(=O)C(F)(F)C(F)(F)C(F)(F)F)c1cccs1 [(Perfluorobutyryl)-2-thenoylmethane]")
100
>>> measured_result("CN(C(=O)C(F)(F)C(F)(F)C(F)(F)F)[Si](C)(C)C [N-Methyl-N-trimethylsilylheptafluorobutyramide]")
0
>>> measured_result("FC(F)(F)C(F)(F)C(F)(F)CI [Heptafluorobutyl iodide]")
0
